Target: SHP-2 enzyme (Met1-Leu525) (Homo sapiens)
Construct: synthetized by Origene, Met1-Leu525, cat #TP750155
Sequence (Q06124 1-525): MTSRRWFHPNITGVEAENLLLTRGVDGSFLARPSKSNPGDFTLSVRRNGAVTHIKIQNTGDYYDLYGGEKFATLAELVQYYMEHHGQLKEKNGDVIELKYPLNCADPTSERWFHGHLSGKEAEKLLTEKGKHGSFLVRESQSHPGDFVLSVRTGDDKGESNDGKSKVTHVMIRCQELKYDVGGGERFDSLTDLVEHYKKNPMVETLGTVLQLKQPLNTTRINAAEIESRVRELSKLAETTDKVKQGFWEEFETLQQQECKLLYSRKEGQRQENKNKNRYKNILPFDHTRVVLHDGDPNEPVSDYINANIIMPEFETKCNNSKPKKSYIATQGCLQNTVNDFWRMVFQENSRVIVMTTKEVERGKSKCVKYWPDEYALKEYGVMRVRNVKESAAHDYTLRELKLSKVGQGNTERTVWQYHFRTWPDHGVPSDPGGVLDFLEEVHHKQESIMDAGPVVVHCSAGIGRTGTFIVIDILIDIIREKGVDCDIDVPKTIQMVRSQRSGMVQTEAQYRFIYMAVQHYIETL
Experiment: SHP2 inhibition enzymatic assay (DiFMUP substrate, IRS1 peptide activation)
Conditions: SHP2 wt; activated by 500 nM IRS1 peptide; 75 μM DiFMUP substrate
pIC50: −log10 of the molar value.
Endpoint label: pIC50

CC(C)(C)S(=O)(=O)N[C@@H]1c2cccnc2CC12CCN(c1nc3nc(Sc4cccnc4C(F)(F)F)cnc3[nH]1)CC2 ... 5.52 to 6.30

Note down pIC50 recorded for NC1CCCN(c2nc3nc(Sc4cccnc4C(F)(F)F)cnc3[nH]2)C1 (stereo not drawn) > 6.30

Note down pIC50 recorded for CNc1nccc(Sc2cnc3[nH]c(N4CCC5(CC4)Cc4ncccc4[C@H]5N)nc3n2)c1C(F)(F)F > 6.30

---

System: ERK phosphorylation in KYSE-520 cells
Assay: Phospho-ERK cellular assay (Advanced phospho-ERK1/2 (Thr202/Tyr204) TR-FRET kit)
Type: cell-based
Conditions: Homo sapiens, KYSE-520, 2 h, KYSE-520 cells, 2 h at 37° C., TR-FRET; read-out: pERK IC50
Endpoint label: IC50

N[C@@H]1c2ccccc2CC12CCN(c1nc3nc(Sc4cncnc4C(F)(F)F)cnc3[nH]1)CC2 ... > 5000 nM
Nc1nccc(Sc2cnc3[nH]c(N4CCC5(CC4)Cc4cc(F)c(F)cc4[C@H]5N)nc3n2)c1Cl ... < 1000 nM
COc1nccc(Sc2cnc3[nH]c(N4CCC5(CC4)Cc4ncccc4[C@H]5N)nc3n2)c1Cl ... > 5000 nM

Here is another compound to look at.
Note down IC50 recorded for CNc1nccc(Sc2cnc3[nH]c(N4CCC5(CC4)Cc4ncccc4[C@H]5N)nc3n2)c1Cl < 1000 nM

---

Tested on: ERK phosphorylation in KYSE-520 cells
Experiment: Phospho-ERK cellular assay (Advanced phospho-ERK1/2 (Thr202/Tyr204) TR-FRET kit)
Format: cell-based
Conditions: Homo sapiens, KYSE-520, 2 h, KYSE-520 cells, 2 h at 37° C., TR-FRET; read-out: pERK IC50
Overview of recorded IC50 for various compounds

CC(=O)N1CC(F)(F)c2c(Sc3cnc4[nH]c(N5CCC6(CC5)Cc5ccccc5[C@H]6N)nc4n3)cccc21 ... < 1 µM

Note down IC50 recorded for N[C@@H]1c2cccnc2CC12CCN(c1nc3ncc(Sc4ccnc(NC5CC5)c4Cl)nc3[nH]1)CC2 1 to 5 µM

Note down IC50 recorded for COc1ncc(CN)cc1Sc1cnc2[nH]c(N3CCC4(CC3)Cc3ccccc3[C@H]4N)nc2n1 1 to 5 µM

Note down IC50 recorded for N[C@@H]1c2ccccc2CC12CCN(c1nc3nc(Sc4cccc5nonc45)cnc3[nH]1)CC2 < 1 µM

Note down IC50 recorded for COc1ccncc1Sc1cnc2[nH]c(N3CCC4(CC3)Cc3ccccc3[C@H]4N)nc2n1 > 5 µM

Note down IC50 recorded for CC1(N)CCN(c2nc3nc(Sc4ccccc4S(F)(F)(F)(F)F)cnc3[nH]2)CC1 1 to 5 µM
